- assay-target: furin, P09958;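 further: purified furin at 1:10 enzyme:substrate in 50 mM HEPES pH 7.5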
- Sequence (P09958 whole entry): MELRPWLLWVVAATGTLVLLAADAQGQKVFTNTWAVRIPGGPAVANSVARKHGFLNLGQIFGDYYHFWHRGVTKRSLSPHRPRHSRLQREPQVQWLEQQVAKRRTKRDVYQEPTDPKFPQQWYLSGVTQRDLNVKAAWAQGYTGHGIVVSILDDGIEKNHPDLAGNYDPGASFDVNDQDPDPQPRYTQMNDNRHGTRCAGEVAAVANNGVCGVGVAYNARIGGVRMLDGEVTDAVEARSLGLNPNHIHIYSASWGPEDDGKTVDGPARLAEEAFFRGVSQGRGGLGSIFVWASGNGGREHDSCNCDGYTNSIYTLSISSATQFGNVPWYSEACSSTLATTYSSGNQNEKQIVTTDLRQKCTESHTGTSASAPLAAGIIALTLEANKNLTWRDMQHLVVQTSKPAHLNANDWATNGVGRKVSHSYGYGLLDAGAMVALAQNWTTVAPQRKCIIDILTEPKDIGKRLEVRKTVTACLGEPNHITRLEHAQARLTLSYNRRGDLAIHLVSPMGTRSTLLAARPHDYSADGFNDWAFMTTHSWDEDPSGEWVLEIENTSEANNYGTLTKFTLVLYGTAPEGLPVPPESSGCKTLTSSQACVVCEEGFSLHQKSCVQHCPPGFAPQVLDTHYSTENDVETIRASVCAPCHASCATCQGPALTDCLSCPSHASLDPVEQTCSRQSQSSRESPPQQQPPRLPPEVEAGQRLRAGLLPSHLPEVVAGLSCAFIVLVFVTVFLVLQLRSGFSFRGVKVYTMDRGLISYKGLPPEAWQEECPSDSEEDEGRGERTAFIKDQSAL
- test-name: furin cleavage Z-score vs untreated control; higher = more cleavage, active = 3.5 or more, inactive = 1 or less, 8 variable residues between constant flanks
- measurement-conditions: 7.5 min
The list shows a part of the results. The hit rate among all sequences tested is not known here.
Reply using exactly one outcome from YES (active), NO (inactive)

Below, 5 sequences whose answers are already recorded.
### Prompt For CALNNRQIRGAGNASASA [FS-1136] , what call appears in the results of this test?
### Response YES

### Prompt And the next one, CATKNRQRRGAGNASASA [FS-1094] ?
### Response YES

### Prompt And what about the sequence CAGVVCAAILAGNASASA [HC1108] ?
### Response NO

### Prompt Try this sequence too: CAWQRRQRRGAGNASASA [FS-896]
### Response YES

### Prompt Also CAPPRRQRRGAGNASASA [FS-1050] ?
### Response NO

New cases:
### Prompt Could you please tell me the result logged for CAEVPCHDPSAGNASASA [HC2371] in this assay?
### Response NO

### Prompt And then CAGSLRKKRLAGNASASA [FS-1528] , what is it?
### Response YES

### Prompt Can you check CATTALVMAQAGNASASA [HC325] next?
### Response NO

### Prompt Next up: CAQYWRDKRLAGNASASA [FS-1154]
### Response NO

### Prompt Same for CASWHLNSTAAGNASASA [HC370]
### Response NO

### Prompt Now the sequence CANCLRQRRGAGNASASA [FS-465]
### Response NO

### Prompt How about this sequence: CATPARKKRLAGNASASA [FS-729]
### Response YES

### Prompt Then what about the sequence CATTPCSGWWAGNASASA [HC1908] ?
### Response NO

### Prompt Then CAEFKRCWKGAGNASASA [FS-2859] ?
### Response NO

### Prompt Also CALWWLQYFLAGNASASA [HC582] ?
### Response NO
